Entries and their measured MIC follow.
System: Bacillus cereus
Test: Antibacterial activity against Bacillus cereus
Format: functional
Number in µg/mL, nothing else.

Example compounds with recorded MIC:
In [3]: df
Out[3]:
                                smiles_repr  result_type  endpoint_result
0  O=C(Cn1cc(CCn2cc(C3CCCC3)nn2)nn1)Nc1ccc(NC(=O)Cn2cc(CCn3cc(C4CCCC4)nn3)nn2)cc1          MIC               64
1  O=C(Cn1cc(CC2CCCCC2)nn1)Nc1ccc(NC(=O)Cn2cc(CC3CCCCC3)nn2)cc1          MIC               64
2  CCOC(=O)c1cn(CC(=O)Nc2ccc(NC(=O)Cn3cc(C(=O)OCC)nn3)cc2)nn1          MIC               64
3  O=C(Cn1cc(CCn2cc(-c3ccccc3)nn2)nn1)Nc1ccc(NC(=O)Cn2cc(CCn3cc(-c4ccccc4)nn3)nn2)cc1          MIC              128
4  O=C(Cn1cc(C2CC2)nn1)Nc1ccc(NC(=O)Cn2cc(C3CC3)nn2)cc1          MIC               64
5  O=C(Cn1cc(C2CCCC2)nn1)Nc1ccc(NC(=O)Cn2cc(C3CCCC3)nn2)cc1          MIC               64
6  O=C(Cn1cc(CCc2ccccc2)nn1)Nc1ccc(NC(=O)Cn2cc(CCc3ccccc3)nn2)cc1          MIC               32
7  CC1(C)S[C@@H]2[C@H](NC(=O)[C@H](N)c3ccccc3)C(=O)N2[C@H]1C(=O)O          MIC                1

Exercise: Which MIC value belongs to `O=C(Cn1cc(CCn2cc(CCc3ccccc3)nn2)nn1)Nc1ccc(NC(=O)Cn2cc(CCn3cc(CCc4ccccc4)nn3)nn2)cc1` ?
Solution: 128

Exercise: Field entry: `[N-]=[N+]=NCCc1cn(CC(=O)Nc2ccc(NC(=O)Cn3cc(CCN=[N+]=[N-])nn3)cc2)nn1`
Solution: 64

Exercise: Field entry: `CC(C)CCc1cn(CCc2cn(CC(=O)Nc3ccc(NC(=O)Cn4cc(CCn5cc(CCC(C)C)nn5)nn4)cc3)nn2)nn1`
Solution: 128

----------
Test system: Pseudomonas aeruginosa
Assay: Antibacterial activity against Pseudomonas aeruginosa
Format: functional
Entries and their measured MIC follow.
Number in µg/mL, nothing else.

Example compounds with recorded MIC:
                                smiles_repr  endpoint_result
0  O=C(Cn1cc(CCn2cc(C3CC3)nn2)nn1)Nc1ccc(NC(=O)Cn2cc(CCn3cc(C4CC4)nn3)nn2)cc1               64
1  O=C(Cn1cc(CCBr)nn1)Nc1ccc(NC(=O)Cn2cc(CCBr)nn2)cc1               64
2  O=C(Cn1cc(C2CC2)nn1)Nc1ccc(NC(=O)Cn2cc(C3CC3)nn2)cc1              128
3  O=C(Cn1cc(CCn2cc(C3CCCC3)nn2)nn1)Nc1ccc(NC(=O)Cn2cc(CCn3cc(C4CCCC4)nn3)nn2)cc1               64

Now take the following compound into account.
Exercise: Which MIC value belongs to `CC1(C)S[C@@H]2[C@H](NC(=O)[C@H](N)c3ccccc3)C(=O)N2[C@H]1C(=O)O` ?
Solution: 0.5

The values you see were collected from ChEMBL document CHEMBL5131406.
